B1: r4_43_TrROS_Hall (parent)
chain: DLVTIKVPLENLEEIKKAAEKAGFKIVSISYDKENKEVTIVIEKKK

variants of: B1; assay: folding stability dG (cDNA display proteolysis); higher = more stable; details: PBS, room temperature
READOUT_NAME: folding stability dG (kcal/mol)
Numbers only here, please. The scale is kcal/mol.

Asked: Can you share its folding stability dG? I mean this variant: N35G
Given back: 3.61

Asked: Can you share its folding stability dG? I mean this variant: A18I
Given back: 3.67

Asked: Can you share its folding stability dG? I mean this variant: D1I
Given back: 3.87
